target: human 11βHSD1 enzyme (Homo sapiens (Human), UniProt P28845); experiment: biochemical; conditions: read-out: % inhibition of human 11-βHSD
Sequence (P28845 whole entry): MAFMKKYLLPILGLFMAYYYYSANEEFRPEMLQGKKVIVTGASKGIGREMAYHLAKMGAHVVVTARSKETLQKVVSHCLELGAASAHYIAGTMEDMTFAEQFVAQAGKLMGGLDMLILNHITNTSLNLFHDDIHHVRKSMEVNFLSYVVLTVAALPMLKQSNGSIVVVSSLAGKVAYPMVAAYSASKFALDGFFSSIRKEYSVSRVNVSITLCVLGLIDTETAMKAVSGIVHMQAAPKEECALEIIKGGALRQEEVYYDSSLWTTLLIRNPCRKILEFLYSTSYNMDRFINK
VALUE_TYPE: inhibition at 30 µM (%)

{"MOLECULE": "O=C(N[C@H]1C2CC3CC1C[C@](O)(C3)C2)c1ccc(N2CC[C@@H](C(=O)O)C2)nc1SC1CCCCC1 [Example 102]", "VALUE_TYPE": "inhibition at 30 µM", "DATA_VALUE": 89}
{"MOLECULE": "CCCSc1nc(N[C@H]2C3CC4CC2C[C@@](C(=O)O)(C4)C3)ccc1C(=O)NC1CCCCC1 [Example 10]", "VALUE_TYPE": "inhibition at 30 µM", "DATA_VALUE": 88}
{"MOLECULE": "CCCSc1nc(N2CCC[C@@H](CC(=O)O)C2)ccc1C(=O)N1CCC(c2cccnc2)C1 (stereo partly drawn) [Example 113]", "VALUE_TYPE": "inhibition at 30 µM", "DATA_VALUE": 90}

---

molecular target: human 11βHSD1 enzyme (Homo sapiens (Human)); assay: biochemical; conditions: read-out: % inhibition of human 11-βHSD
We begin with a simple list: items and their reported inhibition at 30 µM.
VALUE_TYPE: inhibition at 30 µM

{"COMPOUND": "O=C(O)C[C@@H]1CCCN(c2ccc(C(=O)NC3CCCCC3)c(SCCc3ccccc3)n2)C1", "VALUE_TYPE": "inhibition at 30 µM", "DATA_VALUE": "91%"}
{"COMPOUND": "O=C(O)C[C@@H]1CCCN(c2ccc(C(=O)NC3CCCCC3)c(N3CCN(C(=O)c4ccc(F)cc4)CC3)n2)C1", "VALUE_TYPE": "inhibition at 30 µM", "DATA_VALUE": "58%"}
{"COMPOUND": "CCCOc1nc(N2CCC[C@@H](CC(=O)O)C2)ccc1C(=O)N[C@H]1C2CC3CC1C[C@@](O)(C3)C2", "VALUE_TYPE": "inhibition at 30 µM", "DATA_VALUE": "88%"}
{"COMPOUND": "COc1nc(N2CCC[C@@H](CC(=O)O)C2)ccc1C(=O)NC1CCCCC1", "VALUE_TYPE": "inhibition at 30 µM", "DATA_VALUE": "89%"}
{"COMPOUND": "O=C(O)C[C@@H]1CCCN(c2ccc(C(=O)N[C@H]3C4CC5CC3C[C@](OC(F)F)(C5)C4)c(SC3CCCCC3)n2)C1", "VALUE_TYPE": "inhibition at 30 µM", "DATA_VALUE": "92%"}
{"COMPOUND": "CCCSc1nc(N2CCC[C@@H](CC(=O)O)C2)ccc1C(=O)N[C@H]1C2CC3CC1C[C@@](S(C)(=O)=O)(C3)C2 [Example 126b]", "VALUE_TYPE": "inhibition at 30 µM", "DATA_VALUE": "99%"}
{"COMPOUND": "CCCNc1nc(N2CCC[C@@H](CC(=O)O)C2)ccc1C(=O)N(C)C1CCCCC1", "VALUE_TYPE": "inhibition at 30 µM", "DATA_VALUE": "91%"}
{"COMPOUND": "CCCSc1nc(N[C@H]2C3CC4CC2C[C@](C(=O)O)(C4)C3)ccc1C(=O)NC1CCCCC1", "VALUE_TYPE": "inhibition at 30 µM", "DATA_VALUE": "92%"}
{"COMPOUND": "O=C(O)C[C@@H]1CCCN(c2ccc(C(=O)N3CCC(c4cccnc4)C3)c(SC3CCCC3)n2)C1 (stereo partly shown)", "VALUE_TYPE": "inhibition at 30 µM", "DATA_VALUE": "96%"}
{"COMPOUND": "CCCSc1nc(N(C)[C@H]2CC[C@H](C(=O)O)CC2)ccc1C(=O)NC1CCCCC1", "VALUE_TYPE": "inhibition at 30 µM", "DATA_VALUE": "83%"}
{"COMPOUND": "CCCSc1nc(NCC2CCC(C(=O)O)CC2)ccc1C(=O)N[C@H]1C2CC3CC1C[C@](O)(C3)C2 (stereo partly shown)", "VALUE_TYPE": "inhibition at 30 µM", "DATA_VALUE": "94%"}
{"COMPOUND": "CCCSc1nc(N2CCC(CC(=O)O)CC2)ccc1C(=O)N[C@H]1C2CC3CC1C[C@@](O)(C3)C2", "VALUE_TYPE": "inhibition at 30 µM", "DATA_VALUE": "90%"}
{"COMPOUND": "CCCSc1nc(N2CCC[C@@H](CC(=O)O)C2)ccc1C(=O)N1CCC(C(F)(F)F)CC1", "VALUE_TYPE": "inhibition at 30 µM", "DATA_VALUE": "99%"}
{"COMPOUND": "O=C(O)C[C@H]1CCN(c2ccc(C(=O)NC3CCCCC3)c(SC3CCCCC3)n2)C1", "VALUE_TYPE": "inhibition at 30 µM", "DATA_VALUE": "97%"}
{"COMPOUND": "CCCSc1nc(N2CCC[C@@H](CC(=O)O)C2)ccc1C(=O)N[C@H]1CC[C@H](O)CC1", "VALUE_TYPE": "inhibition at 30 µM", "DATA_VALUE": "102%"}
{"COMPOUND": "CCCSc1nc(N2CCC[C@H]2C(=O)O)ccc1C(=O)NC1C2CC3CC(C2)CC1C3 (stereo partly shown)", "VALUE_TYPE": "inhibition at 30 µM", "DATA_VALUE": "89%"}
{"COMPOUND": "CCCSc1nc(N2CC[C@@H](CC(=O)O)C2)ccc1C(=O)NC1C2CC3CC1CC(O)(C3)C2 (stereo partly shown)", "VALUE_TYPE": "inhibition at 30 µM", "DATA_VALUE": "90%"}
{"COMPOUND": "CCCSc1nc(N2CCCC(CCC(=O)O)C2)ccc1C(=O)NC1CCCCC1 (stereo not shown)", "VALUE_TYPE": "inhibition at 30 µM", "DATA_VALUE": "74%"}
{"COMPOUND": "CCCSc1nc(N2CCC(C3(C(=O)O)CC3)CC2)ccc1C(=O)NC1CCCCC1", "VALUE_TYPE": "inhibition at 30 µM", "DATA_VALUE": "81%"}
